Sourced from patent US10030027B2

- target-of-assay: sGC α1/β1 heterodimer (Homo sapiens (Human), UniProt Q02108+Q02153)
- Sequence (Q02108 whole entry): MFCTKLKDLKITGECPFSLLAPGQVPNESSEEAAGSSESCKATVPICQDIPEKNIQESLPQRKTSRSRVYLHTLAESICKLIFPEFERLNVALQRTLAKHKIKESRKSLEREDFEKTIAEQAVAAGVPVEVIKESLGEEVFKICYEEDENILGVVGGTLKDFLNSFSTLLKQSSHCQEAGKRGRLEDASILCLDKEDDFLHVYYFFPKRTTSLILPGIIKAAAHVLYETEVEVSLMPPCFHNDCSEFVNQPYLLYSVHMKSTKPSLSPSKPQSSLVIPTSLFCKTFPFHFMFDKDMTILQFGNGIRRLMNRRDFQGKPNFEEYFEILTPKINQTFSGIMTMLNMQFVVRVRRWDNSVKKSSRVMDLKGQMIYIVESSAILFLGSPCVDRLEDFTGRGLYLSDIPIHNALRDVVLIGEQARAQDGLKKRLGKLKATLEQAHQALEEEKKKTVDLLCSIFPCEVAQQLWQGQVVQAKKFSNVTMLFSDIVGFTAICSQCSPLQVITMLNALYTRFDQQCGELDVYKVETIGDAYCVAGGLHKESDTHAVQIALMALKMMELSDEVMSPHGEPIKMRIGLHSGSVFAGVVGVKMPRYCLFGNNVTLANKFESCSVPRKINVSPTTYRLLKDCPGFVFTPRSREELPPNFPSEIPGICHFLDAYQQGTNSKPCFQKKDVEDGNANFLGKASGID
- Sequence (Q02153 whole entry): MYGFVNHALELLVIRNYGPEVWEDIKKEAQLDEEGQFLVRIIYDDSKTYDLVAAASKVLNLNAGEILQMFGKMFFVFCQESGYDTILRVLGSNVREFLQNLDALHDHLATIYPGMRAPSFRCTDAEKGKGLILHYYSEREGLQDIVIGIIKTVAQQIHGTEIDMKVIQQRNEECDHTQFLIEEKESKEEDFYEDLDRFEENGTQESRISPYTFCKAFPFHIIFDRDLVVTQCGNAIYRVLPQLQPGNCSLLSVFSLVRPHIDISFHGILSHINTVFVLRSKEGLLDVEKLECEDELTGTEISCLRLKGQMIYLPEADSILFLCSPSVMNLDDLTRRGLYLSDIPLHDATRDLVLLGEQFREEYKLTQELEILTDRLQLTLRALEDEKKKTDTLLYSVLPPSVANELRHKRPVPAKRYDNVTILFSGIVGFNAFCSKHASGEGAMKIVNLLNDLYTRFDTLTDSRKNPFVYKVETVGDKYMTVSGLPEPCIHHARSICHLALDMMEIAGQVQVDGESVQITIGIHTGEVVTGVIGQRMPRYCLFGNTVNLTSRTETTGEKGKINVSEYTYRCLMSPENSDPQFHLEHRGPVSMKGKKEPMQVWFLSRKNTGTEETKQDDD
- test-protocol: Cell-based sGC functional assay (cyclic GMP assay for sGC activator: CASA assay)
- run-conditions: inflection point, 4P fit; CHO-K1/sGC cells; read-out: IP
value-kind: EC50 (nM)
Report as a plain number; the unit nM is understood.

# count of solved cases: 2
EC50 recorded for this compound, CC1(c2nc(CCC(F)(F)C(=O)O)co2)C(=O)Nc2nc(-c3nn(Cc4cccc(F)c4)c4cc(F)ccc34)nc(N)c21 (stereo not drawn) [Example 135A] , is 254

EC50 recorded for this compound, CC(Cc1ccc(C2(C)C(=O)Nc3nc(-c4nn(CCCC(F)(F)F)c5ncccc45)nc(N)c32)cc1)C(=O)O (stereo not drawn) [Example 17AB] , is 3780

Continue with the compound presented below.
EC50 recorded for this compound, CC1(c2nn(CC(=O)O)c(=O)o2)C(=O)Nc2nc(-c3nn(CCC(F)(F)C(F)(F)F)c4cc(Cl)ccc34)nc(N)c21 (stereo not drawn) [Example 98A] , is 254
